Parameter 'readout' = GI50; parameter 'system' = U251 (human glioblastoma).

smiles text	inequality sign	GI50 [µM]
CCCN1C(=O)[C@H](O)[C@@H](O)[C@H](O)[C@H]1CNC(=O)Nc1ccc(OC)cc1	=	323
CCCN1C(=O)[C@H](OCc2ccccc2)[C@@H](OCc2ccccc2)[C@H](OCc2ccccc2)[C@H]1CNC(=O)CN1CCN(c2c(CC)cccc2CC)CC1	=	30
CCCN1C(=O)[C@H](OCc2ccccc2)[C@@H](OCc2ccccc2)[C@H](OCc2ccccc2)[C@H]1CNC(=O)c1cccs1	=	105
CCCN1C(=O)[C@H](OCc2ccccc2)[C@@H](OCc2ccccc2)[C@H](OCc2ccccc2)[C@H]1CNC(=O)Nc1ccc(Cl)c(Cl)c1	=	2.6
CCCN1C(=O)[C@H](OC(C)=O)[C@@H](OC(C)=O)[C@H](OC(C)=O)[C@H]1CNC(=O)Nc1ccccc1	=	47.1
C=CCN1C(=O)[C@H](OCc2ccccc2)[C@@H](OCc2ccccc2)[C@H](OCc2ccccc2)[C@H]1COC(=S)Nc1ccc2ccccc2c1	>	373

###

- Test system: U251 (human glioblastoma)
Entries whose GI50 is below 10 µM take Yes; entries at or above 10 µM take No.

molecule	class assignment
CCCN1C(=O)[C@H](OCc2ccccc2)[C@@H](OCc2ccccc2)[C@H](OCc2ccccc2)[C@H]1CNC(=O)C12CC3CC(CC(C3)C1)C2	No
CCCN1C(=O)[C@H](OCc2ccccc2)[C@@H](OCc2ccccc2)[C@H](OCc2ccccc2)[C@H]1CNC(=O)Nc1ccc(C(F)(F)F)cc1	Yes
CCCN1C(=O)[C@H](OCc2ccccc2)[C@@H](OCc2ccccc2)[C@H](OCc2ccccc2)[C@H]1CNC(=O)N1CCc2ccccc21	No
C=CCN1C(=O)C(OCc2ccccc2)C(OCc2ccccc2)C(OCc2ccccc2)C1Cn1ncn(-c2ccc(Cl)cc2)c1=O (stereo not drawn)	No
C=CCN1C(=O)[C@H](OCc2ccccc2)[C@@H](OCc2ccccc2)[C@H](OCc2ccccc2)[C@H]1CN1C(=O)c2ccccc2C1=O	No
CCCN1C(=O)[C@H](OCc2ccccc2)[C@@H](OCc2ccccc2)[C@H](OCc2ccccc2)[C@H]1CNC(=O)CN1CCN(c2ccc(F)cc2)CC1	No
CCCN1C(=O)C(OCc2ccccc2)C(OCc2ccccc2)C(OCc2ccccc2)C1CNC(=O)Nc1ccc(Cl)cc1 (stereo not drawn)	Yes
CCCN1C(=O)[C@H](O)[C@@H](O)[C@H](O)[C@H]1CNC(=O)Cn1cncn1	No
CCCN1C(=O)[C@H](O)[C@@H](O)[C@H](O)[C@H]1CNC(=O)Nc1ccccc1C(F)(F)F	No
CCCN1C(=O)[C@H](OCc2ccccc2)[C@@H](OCc2ccccc2)[C@H](OCc2ccccc2)[C@H]1CNC(=O)CN1CCN(c2ncccn2)CC1	Yes
CCCN1C(=O)[C@H](OCc2ccccc2)[C@@H](OCc2ccccc2)[C@H](OCc2ccccc2)[C@H]1CNC(=S)Nc1ccc2ccccc2c1	No
CCCN1C(=O)[C@H](OCc2ccccc2)[C@@H](OCc2ccccc2)[C@H](OCc2ccccc2)[C@H]1CNC(=O)Nc1cccc(Cl)c1	Yes

###

Reported GI50 values are given for each entry in this list.
- System: U251 (human glioblastoma)

compound	study system	units of measure	GI50
CCCN1C(=O)C(OCc2ccccc2)C(OCc2ccccc2)C(OCc2ccccc2)C1CNC(=O)CN1CCN(C)CC1 (stereo not drawn)	U251 (human glioblastoma)	µM	12.6
CCCN1C(=O)[C@H](O)[C@@H](O)[C@H](O)[C@H]1CN1C(=O)CCC1=O	U251 (human glioblastoma)	µM	34.4
CCCN1C(=O)[C@H](OCc2ccccc2)[C@@H](OCc2ccccc2)[C@H](OCc2ccccc2)[C@H]1CNC(=O)NC12CC3CC(CC(C3)C1)C2	U251 (human glioblastoma)	µM	4.2
CCCN1C(=O)[C@H](O[Si](C)(C)C)[C@@H](O[Si](C)(C)C)[C@H](O[Si](C)(C)C)[C@H]1CNC(=O)Nc1ccccc1	U251 (human glioblastoma)	µM	5.8
CCCN1C(=O)[C@H](OCc2ccccc2)[C@@H](OCc2ccccc2)[C@H](OCc2ccccc2)[C@H]1CNC(=O)Nc1cccc(C(C)=O)c1	U251 (human glioblastoma)	µM	15
CCCN1C(=O)C(OCc2ccccc2)C(OCc2ccccc2)C(OCc2ccccc2)C1CNC(=O)Nc1ccc([N+](=O)[O-])cc1 (stereo not drawn)	U251 (human glioblastoma)	µM	46.9

###

Heads up, these compounds all have GI50 values measured for U251 (human glioblastoma).

compound	GI50, µM
CCCN1C[C@H](OCc2ccccc2)[C@@H](OCc2ccccc2)[C@H](OCc2ccccc2)[C@H]1CNC(=S)Nc1ccc(Cl)cc1	31.9
CCCN1C[C@H](OCc2ccccc2)[C@@H](OCc2ccccc2)[C@H](OCc2ccccc2)[C@H]1CNC(=O)Nc1ccc(F)cc1F	15.4
CCCN1C(=O)[C@H](OCc2ccccc2)[C@@H](OCc2ccccc2)[C@H](OCc2ccccc2)[C@H]1CNC(=O)Nc1ccccc1	16.4
CCCN1C(=O)[C@H](OCc2ccccc2)[C@@H](OCc2ccccc2)[C@H](OCc2ccccc2)[C@H]1CNC(=O)Cn1ncn(-c2ccc(N3CCN(c4ccc(Cl)cc4)CC3)cc2)c1=O	190
CCCN1C(=O)C(OCc2ccccc2)C(OCc2ccccc2)C(OCc2ccccc2)C1CNC(=O)NC(C)C (stereo not shown)	3.3
CCCN1C(=O)[C@H](OCc2ccccc2)[C@@H](OCc2ccccc2)[C@H](OCc2ccccc2)[C@H]1CNC(=O)Nc1ccc(F)cc1F	22.9
CCCN1C(=O)[C@H](O)[C@@H](O)[C@H](O)[C@H]1CNC(=O)CN1CCN(C)CC1	22
CCCN1C(=O)[C@H](OCc2ccccc2)[C@@H](OCc2ccccc2)[C@H](OCc2ccccc2)[C@H]1COc1nc(Cl)nc(Cl)n1	52.8
CCCN1C(=O)C(OCc2ccccc2)C(OCc2ccccc2)C(OCc2ccccc2)C1CNC(=O)Nc1cc(Cl)ccc1OC (stereo not shown)	40.8
CCCN1C(=O)[C@H](OCc2ccccc2)[C@@H](OCc2ccccc2)[C@H](OCc2ccccc2)[C@H]1CNC(=O)CNc1ccc(F)cc1	4.1
O[C@H]1[C@H](O)[C@@H](Cn2cncn2)NC[C@@H]1O	282
CCCN1C(=O)[C@H](O)[C@@H](O)[C@H](O)[C@H]1CN1C(=O)CCCC1=O	101
CCCN1C(=O)[C@H](OCc2ccccc2)[C@@H](OCc2ccccc2)[C@H](OCc2ccccc2)[C@H]1CNC(=O)CCl	2.9

###

Record set of GI50 for target or system U251 (human glioblastoma).

compound	inequality sign	GI50, µM
CCCN1C(=O)[C@H](OCc2ccccc2)[C@@H](OCc2ccccc2)[C@H](OCc2ccccc2)[C@H]1CNC(=O)Cn1cncn1	=	12.9
CCCN1C(=O)[C@H](OCc2ccccc2)[C@@H](OCc2ccccc2)[C@H](OCc2ccccc2)[C@H]1CNC(=O)Nc1ccc(Cl)cc1C(F)(F)F	=	63.5
CCCN1C(=O)[C@H](OCc2ccccc2)[C@@H](OCc2ccccc2)[C@H](OCc2ccccc2)[C@H]1CNC(=O)CN1C[C@H](OCc2ccccc2)[C@@H](OCc2ccccc2)[C@H](OCc2ccccc2)[C@H]1COCc1ccccc1	>	618
CCCN1C(=O)[C@H](OCc2ccccc2)[C@@H](OCc2ccccc2)[C@H](OCc2ccccc2)[C@H]1CNC(=O)CN1CCN(c2cccc(C(F)(F)F)c2)CC1	=	3.4
CCCN1C(=O)[C@H](O)[C@@H](O)[C@H](O)[C@H]1Cn1cncn1	=	516
CCCN1C(=O)C(OCc2ccccc2)C(OCc2ccccc2)C(OCc2ccccc2)C1CNC(=O)NS(=O)(=O)c1ccc(Cl)cc1 (stereo not drawn)	=	61.8
C=CCN1C(=O)C(OCc2ccccc2)C(OCc2ccccc2)C(OCc2ccccc2)C1CN1C(=O)CCCC1=O (stereo not drawn)	=	12.5
CCCN1C(=O)C(OCc2ccccc2)C(OCc2ccccc2)C(OCc2ccccc2)C1CNC(=O)Nc1ccc(OC)cc1 (stereo not drawn)	=	16.8
CCCN1C(=O)[C@H](OCc2ccccc2)[C@@H](OCc2ccccc2)[C@H](OCc2ccccc2)[C@H]1CNC(=O)Oc1ccccc1	=	34.2
C=CCN1C[C@H](OCc2ccccc2)[C@@H](OCc2ccccc2)[C@H](OCc2ccccc2)[C@H]1COC(=O)Nc1ccc(Cl)cc1	=	29.8
CCCN1C(=O)[C@H](O)[C@@H](O)[C@H](O)[C@H]1CNC(=O)C12CC3CC(CC(C3)C1)C2	=	144
C=CCN1C(=O)[C@H](OCc2ccccc2)[C@@H](OCc2ccccc2)[C@H](OCc2ccccc2)[C@H]1COC(=O)c1cccs1	>	419

###

As an illustration, consider measured GI50 for compounds on U251 (human glioblastoma).
metric name: GI50 (µM)

smiles text	metric name	result
CCCN1C(=O)[C@H](O)[C@@H](O)[C@H](O)[C@H]1CNC(=O)Nc1ccc(C(F)(F)F)cc1	GI50	82.2
CCCN1C(=O)[C@H](OCc2ccccc2)[C@@H](OCc2ccccc2)[C@H](OCc2ccccc2)[C@H]1CNC(=O)CN1C(=O)c2ccccc2C1=O	GI50	117
CCCN1C(=O)[C@H](OC(C)=O)[C@@H](OC(C)=O)[C@H](OC(C)=O)[C@H]1CNC(=O)Nc1ccc(OC)cc1	GI50	62
CCCN1C(=O)[C@H](O)[C@@H](O)[C@H](O)[C@H]1COC(=O)Nc1ccccc1	GI50	235
